The compounds listed here are annotated with their pKi.
Target: MC1-R (Mus musculus, UniProt Q01727)
Sequence (Q01727 whole entry): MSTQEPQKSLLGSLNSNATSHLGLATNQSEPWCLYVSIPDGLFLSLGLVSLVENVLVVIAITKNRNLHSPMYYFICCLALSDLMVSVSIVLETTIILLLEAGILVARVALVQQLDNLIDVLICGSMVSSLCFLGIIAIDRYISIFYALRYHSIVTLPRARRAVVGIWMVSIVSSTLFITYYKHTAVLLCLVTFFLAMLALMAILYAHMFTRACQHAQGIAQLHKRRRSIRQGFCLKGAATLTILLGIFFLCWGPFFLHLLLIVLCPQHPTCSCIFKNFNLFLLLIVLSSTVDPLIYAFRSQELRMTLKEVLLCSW
Non-standard residues stand in square brackets, D forms with d. Residues, ends and D or L forms follow the SMILES beside them. *: point of attachment. dPhe(4-Cl) = N[C@H](Cc1ccc(Cl)cc1)C(=O)O; d2Nal = N[C@H](Cc1ccc2ccccc2c1)C(=O)O; Ahp = NCCCCCCC(=O)O; Bn = c1ccc(C*)cc1
Recall that pKi is obtained by taking minus log10 of the concentration measured in molar.

Recorded pKi, per entry:
- COMPOUND: "C[C@H](NC(=O)[C@H](Cc1c[nH]c2ccccc12)NC(=O)[C@H](CCCNC(=N)N)NC(=O)[C@@H](Cc1ccc(Cl)cc1)NC(=O)[C@H](COCc1ccccc1)NC(=O)CCCCCCN)C(N)=O (H-[Ahp]S(Bn)[dPhe(4-Cl)]RWA-NH2)"
  MEAS VALUE: 6.85
- COMPOUND: "N=C(N)NCCC[C@H](NC(=O)[C@@H](Cc1ccc2ccccc2c1)NC(=O)[C@H](COCc1ccccc1)NC(=O)CCCCCCN)C(=O)N[C@@H](Cc1c[nH]c2ccccc12)C(N)=O (H-[Ahp]S(Bn)[d2Nal]RW-NH2)"
  MEAS VALUE: 5.73
- COMPOUND: "N=C(N)NCCCC(NC(=O)C(Cc1ccc(Cl)cc1)NC(=O)C(COCc1ccccc1)NC(=O)CCCCCCN)C(=O)NC(Cc1c[nH]c2ccccc12)C(N)=O (stereo not drawn)"
  MEAS VALUE: 6.10
- COMPOUND: "N=C(N)NCCC[C@H](NC(=O)[C@@H](Cc1ccc2ccccc2c1)NC(=O)[C@H](COCc1ccccc1)NC(=O)CCCCCCN)C(=O)N[C@H](Cc1c[nH]c2ccccc12)C(N)=O (H-[Ahp]S(Bn)[d2Nal]R[dW]-NH2)"
  MEAS VALUE: 5.89

What value of pKi has been recorded for this entry: N=C(N)NCCC[C@H](NC(=O)[C@@H](Cc1ccc(Cl)cc1)NC(=O)[C@H](COCc1ccccc1)NC(=O)CCCCCCN)C(=O)N[C@@H](Cc1c[nH]c2ccccc12)C(=O)N[C@@H](CC(=O)O)C(=O)N[C@@H](Cc1ccccc1)C(N)=O (H-[Ahp]S(Bn)[dPhe(4-Cl)]RWDF-NH2)
6.57

What pKi value was documented for this compound, N=C(N)NCCC[C@H](NC(=O)[C@@H](Cc1ccc(Cl)cc1)NC(=O)[C@H](COCc1ccccc1)NC(=O)CCCCCCN)C(=O)N[C@@H](Cc1c[nH]c2ccccc12)C(=O)N[C@@H](CC(=O)O)C(N)=O (H-[Ahp]S(Bn)[dPhe(4-Cl)]RWD-NH2) ?
6.12
